- Study system: Human recombinant MMP-2 (Homo sapiens, UniProt P08253)
- Construct: made in house; host or cells: MMP-2-transfected p2AHT2 cells
- Sequence (P08253 110-660): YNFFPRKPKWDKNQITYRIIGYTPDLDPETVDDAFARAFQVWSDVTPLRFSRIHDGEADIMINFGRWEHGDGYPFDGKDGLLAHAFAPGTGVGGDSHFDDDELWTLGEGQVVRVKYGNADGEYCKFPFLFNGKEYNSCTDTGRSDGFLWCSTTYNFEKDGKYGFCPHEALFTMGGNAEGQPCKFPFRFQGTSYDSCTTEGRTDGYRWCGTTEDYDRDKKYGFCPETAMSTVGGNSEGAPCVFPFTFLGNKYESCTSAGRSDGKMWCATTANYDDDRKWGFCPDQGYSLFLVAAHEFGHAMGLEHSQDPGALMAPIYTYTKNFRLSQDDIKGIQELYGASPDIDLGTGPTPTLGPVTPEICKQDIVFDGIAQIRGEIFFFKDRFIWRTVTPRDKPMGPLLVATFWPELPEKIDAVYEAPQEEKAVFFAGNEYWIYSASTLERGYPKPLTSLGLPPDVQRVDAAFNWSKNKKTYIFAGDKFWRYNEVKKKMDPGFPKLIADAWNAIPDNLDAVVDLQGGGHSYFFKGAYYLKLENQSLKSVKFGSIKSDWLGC
- Assay overview: In vitro MMP inhibition, IC50 determination (fluorogenic substrate I)
- Format: biochemical
- Stated conditions: value outside parentheses (Ki in parenthesis)
pIC50: −log10 of the molar value.

| Compound | pIC50 |
| --- | --- |
| O=C(NO)C1(S(=O)(=O)c2ccc(OCCCCCO)cc2)CCOCC1 | 8.66 |
| O=C(NCCCOc1ccc(S(=O)(=O)C2(C(=O)NO)CCOCC2)cc1)C12CC3CC(CC(C3)C1)C2 | 5.63 |
| O=C(NCCCOc1ccc(S(=O)(=O)C2(C(=O)NO)CCOCC2)cc1)c1cccnc1 | 6.60 |
| COc1ccc(C(=O)N2CC[C@@H](Oc3ccc(S(=O)(=O)C4(C(=O)NO)CCOCC4)cc3)C2)cc1 | 5.14 |

###

- Study system: Human recombinant MMP-1 (Homo sapiens)
- Construct: made in house; host or cells: MMP-1-transfected HT-1080 cells (spent media)
- Sequence (P03956 100-469): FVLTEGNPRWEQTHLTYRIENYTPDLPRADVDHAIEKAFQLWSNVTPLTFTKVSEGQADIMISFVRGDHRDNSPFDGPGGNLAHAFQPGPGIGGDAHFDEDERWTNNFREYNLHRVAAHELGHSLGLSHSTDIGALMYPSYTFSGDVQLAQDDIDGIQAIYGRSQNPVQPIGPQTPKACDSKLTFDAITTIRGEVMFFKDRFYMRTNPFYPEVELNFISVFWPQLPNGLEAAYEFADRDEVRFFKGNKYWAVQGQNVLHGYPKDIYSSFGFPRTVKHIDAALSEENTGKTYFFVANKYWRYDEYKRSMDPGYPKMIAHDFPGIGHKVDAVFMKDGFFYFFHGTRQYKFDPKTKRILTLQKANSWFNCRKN
- Assay overview: In vitro MMP inhibition, Ki determination (fluorogenic substrate II)
- Assay type: biochemical
- Stated conditions: value in parentheses
pKi: −log10 of the molar value.
# reported pKi; entries follow

| Compound | pKi |
| --- | --- |
| N#Cc1ccc(-c2cccc(CCCOc3ccc(S(=O)(=O)C4(C(=O)NO)CCOCC4)cc3)c2)cc1 | < 5.00 |
| COCCN1CCC(C(=O)NO)(S(=O)(=O)c2ccc(OCCCc3cccc(-c4cccs4)c3)cc2)CC1 | < 5.00 |
| CCCCCCCOc1ccc(S(=O)(=O)C2(C(=O)NO)CCOCC2)cc1 | 5.44 |
| O=C(NO)C1(S(=O)(=O)c2ccc(OCCCc3cccc(-c4cccc5ccccc45)c3)cc2)CCOCC1 | < 5.00 |
| CCc1ccc(COc2ccc(S(=O)(=O)C3(C(=O)NO)CCOCC3)cc2)cn1 | < 5.00 |
| CCCc1ccc(CCCOc2ccc(S(=O)(=O)C3(C(=O)NO)CCOCC3)cc2)cn1 | < 5.00 |
| CCCC(=O)CCCOc1ccc(S(=O)(=O)C2(C(=O)NO)CCOCC2)cc1 | 6.07 |
| COCCN1CCC(C(=O)NO)(S(=O)(=O)c2ccc(OCCc3ccc(-c4ccc(C#N)cc4)cc3)cc2)CC1 | < 5.00 |

###

- Study system: Human recombinant MMP-13 (Homo sapiens)
- Construct: made in house; host or cells: baculovirus / insect cells
- Assay overview: In vitro MMP inhibition, IC50 determination (fluorogenic substrate I)
- Format: biochemical
- Stated conditions: value outside parentheses
pIC50: −log10 of the molar value.
# reported pIC50; entries follow
Readout kind: pIC50

| Compound | Readout kind | Measured |
| --- | --- | --- |
| O=C(NO)C1(S(=O)(=O)c2ccc(OCCOc3ccc4c(c3)OCO4)cc2)CCOCC1 | pIC50 | 8.62 |
| O=C(NCCOc1ccc(S(=O)(=O)C2(C(=O)NO)CCOCC2)cc1)c1cc2ccccc2s1 | pIC50 | 8.82 |
| O=C(NO)C1(S(=O)(=O)c2ccc(OCCCc3cccc(N4CCNCC4)c3)cc2)CCN(C2CC2)CC1 | pIC50 | 8.30 |
| O=C(NO)C1(S(=O)(=O)c2ccc(OCCCc3nc(-c4cccnc4)no3)cc2)CCOCC1 | pIC50 | 8.54 |

###

- Study system: Human recombinant MMP-2 (Homo sapiens, UniProt P08253)
- Construct: made in house; host or cells: MMP-2-transfected p2AHT2 cells
- Assay overview: In vitro MMP inhibition, IC50 determination (fluorogenic substrate I)
- Assay type: biochemical
- Stated conditions: value outside parenthesis
# reported log10 IC50; entries follow
Readout kind: log10 IC50 (log10 of the value in nM)

| Compound | Measured |
| --- | --- |
| O=C(NO)C1(S(=O)(=O)c2ccc(OCCc3cccc(-c4ccc(F)cc4)c3)cc2)CCOCC1 | 2.58 |
| O=C(NO)C1(S(=O)(=O)c2ccc(OCCCc3cccc(-c4ccc(OC(F)(F)F)cc4)c3)cc2)CCOCC1 | 3.68 |
| O=C(NO)C1(S(=O)(=O)c2ccc(OCCc3cccc(-c4ccc(Cl)c(Cl)c4)c3)cc2)CCOCC1 | 3.39 |
| O=C(NO)C1(S(=O)(=O)c2ccc(OCCCc3cccc(-c4cccnc4)c3)cc2)CCOCC1 | 2.13 |
| CCc1ccccc1-c1noc(CCCOc2ccc(S(=O)(=O)C3(C(=O)NO)CCN(CCOC)CC3)cc2)n1 | 1.14 |
| O=C1CN(c2ccc(OC(F)(F)F)cc2)C(=O)N1CCCOc1ccc(S(=O)(=O)C2(C(=O)NO)CCN(C3CC3)CC2)cc1 | 1.93 |
| COCCN1CCC(C(=O)NO)(S(=O)(=O)c2ccc(OCCCn3cc(-c4cccc(OC)c4)cn3)cc2)CC1 | 2.63 |

###

# reported pIC50; entries follow
- Study system: Human recombinant MMP-13 (Homo sapiens)
- Construct: made in house; host or cells: baculovirus / insect cells
- Assay overview: In vitro MMP inhibition, IC50 determination (fluorogenic substrate I)
- Type: biochemical
- Stated conditions: value outside parentheses (Ki in parenthesis)
pIC50: −log10 of the molar value.
Readout kind: pIC50

| Compound | Readout kind | Measured |
| --- | --- | --- |
| COc1ccc(OCCCOc2ccc(S(=O)(=O)C3(C(=O)NO)CCOCC3)cc2)cc1 | pIC50 | 8.70 |
| O=C(CCCOc1ccc(S(=O)(=O)C2(C(=O)NO)CCOCC2)cc1)Cc1ccc(Cl)cc1 | pIC50 | 10.00 |
| COc1ccc(C(=O)N2CCC(COc3ccc(S(=O)(=O)C4(C(=O)NO)CCOCC4)cc3)CC2)cc1 | pIC50 | 8.40 |
| CCCC(C)C(=O)NCCCOc1ccc(S(=O)(=O)C2(C(=O)NO)CCOCC2)cc1 (stereo not shown) | pIC50 | 8.28 |

###

- Study system: Human recombinant MMP-1 (Homo sapiens, UniProt P03956)
- Construct: made in house; host or cells: MMP-1-transfected HT-1080 cells (spent media)
- Sequence (P03956 100-469): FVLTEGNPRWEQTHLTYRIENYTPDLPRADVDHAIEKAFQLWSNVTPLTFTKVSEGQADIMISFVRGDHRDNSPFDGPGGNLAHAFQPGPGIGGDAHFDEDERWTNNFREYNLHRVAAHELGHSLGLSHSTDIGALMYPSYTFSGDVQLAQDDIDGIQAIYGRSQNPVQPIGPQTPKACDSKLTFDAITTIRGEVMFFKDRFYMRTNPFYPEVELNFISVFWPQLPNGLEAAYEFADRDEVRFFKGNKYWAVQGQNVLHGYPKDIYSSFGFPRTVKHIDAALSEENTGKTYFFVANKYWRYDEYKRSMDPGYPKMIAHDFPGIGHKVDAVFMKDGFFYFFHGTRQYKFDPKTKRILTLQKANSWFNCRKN
- Assay overview: In vitro MMP inhibition, IC50 determination (fluorogenic substrate I)
- Assay type: biochemical
- Stated conditions: value outside parenthesis
pIC50: −log10 of the molar value.
# reported pIC50; entries follow
Readout kind: pIC50

| Molecule | Value relation sign | Measured |
| --- | --- | --- |
| CCOc1ccc2nc(SCCCOc3ccc(S(=O)(=O)C4(C(=O)NO)CCOCC4)cc3)sc2c1 | < | 5.00 |
| O=C(CCCOc1ccc(S(=O)(=O)C2(C(=O)NO)CCOCC2)cc1)Nc1ccc(OC(F)(F)F)cc1 [Example 250] | = | 5.36 |
| CCCc1ccc(-c2nc(CCCOc3ccc(S(=O)(=O)C4(C(=O)NO)CCN(CCOC)CC4)cc3)oc2C)cc1 | < | 5.00 |
| CN(C(=O)CCCOc1ccc(S(=O)(=O)C2(C(=O)NO)CCOCC2)cc1)c1ccc(OC(F)(F)F)cc1 | < | 5.00 |
| COCCN1CCC(C(=O)NO)(S(=O)(=O)c2ccc(OCCCn3nnc(-c4ccc(SC)cc4)n3)cc2)CC1 | = | 5.34 |
| Cc1ccc(-c2cccc(CCOc3ccc(S(=O)(=O)C4(C(=O)NO)CCOCC4)cc3)c2)cc1 | < | 5.00 |
| COC(=O)CCCOc1ccc(S(=O)(=O)C2(C(=O)NO)CCOCC2)cc1 | = | 5.01 |
| O=C(NO)C1(S(=O)(=O)c2ccc(OCCCc3cccc(Br)c3)cc2)CCOCC1 | < | 5.00 |
| O=C(NO)C1(S(=O)(=O)c2ccc(OCCc3cccc(-c4cccnc4)c3)cc2)CCOCC1 | = | 5.53 |
